The compounds listed here are annotated with their pIC50.
- measurementTarget: JAK3 (Homo sapiens (Human))
- Sequence (P52333 whole entry): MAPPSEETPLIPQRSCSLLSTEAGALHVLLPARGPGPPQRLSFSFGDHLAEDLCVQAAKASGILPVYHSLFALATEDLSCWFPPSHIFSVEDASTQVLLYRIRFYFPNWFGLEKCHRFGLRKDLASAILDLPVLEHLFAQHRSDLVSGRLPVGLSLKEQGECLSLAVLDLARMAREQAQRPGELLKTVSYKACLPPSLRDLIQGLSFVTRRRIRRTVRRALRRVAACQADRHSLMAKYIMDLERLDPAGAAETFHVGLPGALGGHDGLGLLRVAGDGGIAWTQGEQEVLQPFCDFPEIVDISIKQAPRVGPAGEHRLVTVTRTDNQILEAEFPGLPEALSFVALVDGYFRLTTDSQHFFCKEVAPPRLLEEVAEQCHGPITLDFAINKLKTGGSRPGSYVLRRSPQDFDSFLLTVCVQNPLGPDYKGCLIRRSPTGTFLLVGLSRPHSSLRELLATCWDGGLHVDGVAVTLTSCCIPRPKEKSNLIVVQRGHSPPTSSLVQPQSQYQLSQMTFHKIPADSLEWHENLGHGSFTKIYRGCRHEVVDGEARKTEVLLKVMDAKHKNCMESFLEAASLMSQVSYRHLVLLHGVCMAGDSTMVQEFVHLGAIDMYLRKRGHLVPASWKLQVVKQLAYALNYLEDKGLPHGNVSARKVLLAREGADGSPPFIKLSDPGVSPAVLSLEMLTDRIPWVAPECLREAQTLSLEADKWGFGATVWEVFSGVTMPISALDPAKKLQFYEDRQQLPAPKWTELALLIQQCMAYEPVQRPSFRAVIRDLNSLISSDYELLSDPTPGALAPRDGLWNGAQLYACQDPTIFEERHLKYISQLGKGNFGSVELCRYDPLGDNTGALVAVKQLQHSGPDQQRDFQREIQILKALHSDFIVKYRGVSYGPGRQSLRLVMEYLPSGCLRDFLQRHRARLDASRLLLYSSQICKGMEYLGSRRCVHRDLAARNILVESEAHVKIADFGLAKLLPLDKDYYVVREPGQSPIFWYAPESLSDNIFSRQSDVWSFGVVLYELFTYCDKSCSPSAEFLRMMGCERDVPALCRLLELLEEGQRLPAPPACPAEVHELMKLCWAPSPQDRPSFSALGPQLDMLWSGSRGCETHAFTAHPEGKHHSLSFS
- testSummary: JAK3 kinase assay (radiometric filter binding, 10 μM ATP)
- Format: biochemical
- testSettings: 10-dose IC50 mode, 10 μM ATP; read-out: JAK3 kinase inhibition
pIC50: −log10 of the molar value.

Use the examples below as a reference point.
Task: State the recorded pIC50 for this entry: C=CC(=O)Nc1cccc(-c2cnc3[nH]cc(-c4cccc(F)c4OC)c3c2)c1
Result: > 7.00

Task: Give the measured pIC50 of C=CC(=O)Nc1cc(F)cc(-c2cnc3[nH]cc(-c4cc(F)cc(F)c4OC)c3c2)c1C .
Result: > 7.00

Task: What does the data say about its pIC50? Entry: CCC#CC(=O)Nc1cc(-c2cnc3[nH]cc(Cl)c3c2)ccc1F
Result: > 7.00

Task: Entry Cc1cccc(-c2c[nH]c3ncc(-c4cccc(NC(=O)/C=C/CN(C)C)c4)cc23)c1F : reported pIC50 = ?
Result: < 7.00

Task: GET /values?readout=pIC50&item= COc1cc(F)c(C)cc1-c1c[nH]c2ncc(-c3cc(F)cc(NC(=O)/C=C/CN(C)C)c3C)cc12
Result: > 7.00

More entries:
Task: Form field: reported pIC50 of C=CC(=O)Nc1cccc(-c2cnc3[nH]cc(-c4cc5ccccc5[nH]4)c3c2)c1 [Example 66]
Result: > 7.00

Task: Quick check: pIC50 of C=CC(=O)Nc1cccc(-c2cnc3[nH]cc(-c4cccc(S(C)(=O)=O)c4)c3c2)c1 ?
Result: < 7.00

Task: What value of pIC50 has been reported for the following compound? C=CC(=O)Nc1ccc(-c2cnc3[nH]cc(Cl)c3c2)cc1F
Result: < 7.00
